Reference source: patent US20220220100A1

Give Chromophore Remaining (%) for every item shown.
Experiment Description: Photostability: xenon arc weathering of chromophore solutions, LCMS analysis
Type: physicochemical
Protocol Conditions: 10 wt % in Rhodiasolv IRIS; xenon arc, 82° C. bp; linearly interpolated to 0.5 MJ/m2 @ 340 nm of exposure energy

- Compound: "CC(C)(C)c1ccc(-c2oc3cc(OCCN4CCOC4=O)c(OCCN4CCOC4=O)cc3c2C2=C(c3cc(-c4cc5c(s4)C(C)(C)CCC5(C)C)sc3-c3cc4c(s3)C(C)(C)CCC4(C)C)C(F)(F)C(F)(F)C2(F)F)cc1 [Chromophore S390]"
  Recorded Value: "98.8%"
- Compound: "CCOC(=O)CCCOc1cc2oc(-c3ccc(C(C)(C)C)cc3)c(C3=C(c4cc(-c5sc(C(C)(C)C)cc5C)sc4-c4sc(C(C)(C)C)cc4C)C(F)(F)C(F)(F)C3(F)F)c2cc1OCCCC(=O)OCC [Chromophore S384]"
  Recorded Value: "97.2%"
- Compound: "COCCCOc1cc2oc(-c3ccc(C(C)(C)C)cc3)c(C3=C(c4cc(-c5cc(C(C)(C)C)cs5)sc4-c4cc(C(C)(C)C)cs4)C(F)(F)C(F)(F)C3(F)F)c2cc1OCCCOC"
  Recorded Value: "98.6%"
- Compound: "CC(=O)Oc1cc2oc(-c3ccc(C(C)(C)C)cc3)c(C3=C(c4cc(-c5ccc(C(C)(C)C)s5)sc4-c4ccc(C(C)(C)C)s4)C(F)(F)C(F)(F)C3(F)F)c2cc1OC(C)=O [Chromophore S367]"
  Recorded Value: "40.8%"

Batch lookup, Chromophore Remaining (%) per entry.
1. CCOC(=O)CCCOc1cc2oc(-c3ccc(C(C)(C)C)cc3)c(C3=C(c4cc(-c5ccc(C(C)(C)C)s5)sc4-c4ccc(C(C)(C)C)s4)C(F)(F)C(F)(F)C3(F)F)c2cc1OCCCC(=O)OCC [Chromophore S374]
2. COCCCOc1cc2oc(-c3ccc(C(C)(C)C)cc3)c(C3=C(c4cc(-c5cc6c(s5)C(C)(C)CCC6(C)C)sc4-c4cc5c(s4)C(C)(C)CCC5(C)C)C(F)(F)C(F)(F)C3(F)F)c2cc1OCCCOC [Chromophore S388]

1. 72.4%
2. 97.7%

###

Please go through the items and note down their YI (Yellowness Index).
Experiment Description: UV/Vis absorbance at 400 nm and Yellowness Index of the ring-open isomer
Type: physicochemical
Numbers only.

- Structure Notation: "COc1ccc2oc(-c3ccc(C(C)(C)C)cc3)c(C3=C(c4cc(-c5cc6c(s5)C(C)(C)CCC6(C)C)sc4-c4cc5c(s4)C(C)(C)CCC5(C)C)C(F)(F)C(F)(F)C3(F)F)c2c1"
  Measured Attribute: "YI (Yellowness Index)"
  Recorded Value: 6.67

Below is a list of compounds. For each, state its recorded YI (Yellowness Index).
1. COCCOc1cc2oc(-c3ccc(C(C)(C)C)cc3)c(C3=C(c4cc(-c5ccc(C(C)(C)C)s5)sc4-c4ccc(C(C)(C)C)s4)C(F)(F)C(F)(F)C3(F)F)c2cc1OCCOC
2. CCOC(=O)CCCOc1cc2oc(-c3ccc(C(C)(C)C)cc3)c(C3=C(c4cc(-c5ccc(C(C)(C)C)s5)sc4-c4sc(C(C)(C)C)cc4C)C(F)(F)C(F)(F)C3(F)F)c2cc1OCCCC(=O)OCC
3. COc1cc2oc(-c3ccc(C(C)(C)C)cc3)c(C3=C(c4cc(-c5cc6c(s5)C(C)(C)CCCC6(C)C)sc4-c4cc5c(s4)C(C)(C)CCCC5(C)C)C(F)(F)C(F)(F)C3(F)F)c2cc1OC
4. COCCCOc1cc2oc(-c3ccc(C(C)(C)C)cc3)c(C3=C(c4cc(-c5cc(C(C)(C)C)cs5)sc4-c4cc(C(C)(C)C)cs4)C(F)(F)C(F)(F)C3(F)F)c2cc1OCCCOC
5. COc1ccc2oc(-c3ccc(C(C)(C)C)cc3)c(C3=C(c4cc(-c5ccc(C(C)(C)C)s5)sc4-c4ccc(C(C)(C)C)s4)C(F)(F)C(F)(F)C3(F)F)c2c1
6. CC(=O)Oc1cc2oc(-c3ccc(C(C)(C)C)cc3)c(C3=C(c4cc(-c5cc(C(C)(C)C)cs5)sc4-c4cc(C(C)(C)C)cs4)C(F)(F)C(F)(F)C3(F)F)c2cc1OC(C)=O

1: 4.21; 2: 4.52; 3: 7.26; 4: 4.29; 5: 2.91; 6: 2.78

Provide reported YI (Yellowness Index) for each item, in the same order as listed.
1. COc1cc2oc(-c3ccc(C(C)(C)C)cc3)c(C3=C(c4cc(-c5cc6c(s5)C(C)(C)CC6(C)C)sc4-c4cc5c(s4)C(C)(C)CC5(C)C)C(F)(F)C(F)(F)C3(F)F)c2cc1OC
2. CC(C)(C)c1ccc(-c2oc3ccccc3c2C2=C(c3cc(-c4ccc(C(C)(C)C)s4)sc3-c3ccc(C(C)(C)C)s3)C(F)(F)C(F)(F)C2(F)F)cc1
3. COc1cc2oc(-c3ccc(C(C)(C)C)cc3)c(C3=C(c4cc(-c5cccs5)sc4-c4cccs4)C(F)(F)C(F)(F)C3(F)F)c2cc1OC

11.1
4.87
3.59
